assay: chemical genetic growth profiling, strain panel (AID 1159580);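 note: tested at 20 µM; growth read once vehicle control cultures reached saturation at 30 °C; 1 = growth at the plate median or of vehicle wells; lower values mean less growth of the strain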; settings: S. cerevisiae deletion strains, growth OD, locus YDL035C, strain GPR1, active compounds read low
Screen size: about 5,500 compounds; about 2,000 (36%) were called active. Roughly 18% stayed inconclusive and do not appear here. Some of the results follow.
Could you please report measured normalized growth for the items listed next?
Answers are plain numbers.

Below are worked cases with known answers.
>>> value_observed("CC(C)=CCc1c2c(c(O)c3c(=O)c(O)c(-c4ccccc4)oc13)C=CC(C)(C)O2")
0.589
>>> value_observed("CC(=O)Nc1ccc(O)cc1")
0.984
>>> value_observed("CCCCC1C(=O)N(c2ccccc2)N(c2ccccc2)C1=O")
0.989

// for each molecule below, give its normalized growth
1. CCC1C2CC3C4N(C)c5ccccc5C45CC(C2C5OC(C)=O)N3C1OC(C)=O (stereo not given)
2. CCCCCCc1ccc(O)cc1O
3. CC(=O)Oc1c(-c2ccccc2)oc2c(CC=C(C)C)c3c(c(OC(C)=O)c2c1=O)C=CC(C)(C)O3
4. Cc1cc(=O)c2c(O)c3c(cc2o1)OCC(C)CC3 (stereo not given)
5. CC(=O)O.CC(=O)O.[Cd]
6. CC(=O)[C@H]1CCC2C3CC=C4C[C@@H](O)CC[C@]4(C)C3CC[C@@]21C (stereo not given in full)
7. O=c1c2ccccc2oc2ccc(O)cc12

[1.02, 0.872, 0.875, 0.954, 0.243, 0.863, 0.814]
